koff by entry:
- Target under test: T1, GST-human NOGO-A56 (human)
- T1 construct: Expressed in E. coli BL21 from pGEX-6P1 and purified on glutathione-sepharose; the GST tag is part of the protein in the assays; also called GST-Nogo-A 5+6; GST Nogo-A 5 + 6
- T1 sequence (chain, as listed by the source limits assumed): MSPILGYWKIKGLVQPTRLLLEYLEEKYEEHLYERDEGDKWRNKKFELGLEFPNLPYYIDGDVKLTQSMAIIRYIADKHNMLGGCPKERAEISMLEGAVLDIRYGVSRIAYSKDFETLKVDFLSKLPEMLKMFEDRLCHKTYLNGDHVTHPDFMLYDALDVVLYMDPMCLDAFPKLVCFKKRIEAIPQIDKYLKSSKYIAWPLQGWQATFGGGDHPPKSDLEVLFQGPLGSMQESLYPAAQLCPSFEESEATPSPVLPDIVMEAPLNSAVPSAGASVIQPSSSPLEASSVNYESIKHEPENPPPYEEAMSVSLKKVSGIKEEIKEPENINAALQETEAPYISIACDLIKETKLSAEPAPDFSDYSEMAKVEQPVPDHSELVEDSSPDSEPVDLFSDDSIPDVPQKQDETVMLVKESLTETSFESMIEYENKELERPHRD
- Assay method text: SPR (Biacore) off-rate on NOGO chip, panel of H6FL CDR H3 variants with L13FL
Property label: koff

Binder: H6L13 variant with VH CDR3 GQFY (antibody, human IgG1, kappa, V domains shown, Single point variant of H6FL with L13FL) VH: QVQLVQSGAEVKKPGASVKVSCKASGYTFTSYWMHWVRQAPGQGLEWIGNINPSNGGTNYNEKFKSRATMTRDTSTSTAYMELSSLRSEDTAVYYCELGQFYWGQGTLVTVSS VL: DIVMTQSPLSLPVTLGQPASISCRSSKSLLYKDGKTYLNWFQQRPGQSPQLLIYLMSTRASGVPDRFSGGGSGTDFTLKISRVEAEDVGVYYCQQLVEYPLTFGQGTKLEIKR
Property label: koff
Result: 0.0335 s⁻¹

Binder: H6L13 variant with VH CDR3 GQGW (antibody, human IgG1, kappa, V domains shown, Single point variant of H6FL with L13FL) VH: QVQLVQSGAEVKKPGASVKVSCKASGYTFTSYWMHWVRQAPGQGLEWIGNINPSNGGTNYNEKFKSRATMTRDTSTSTAYMELSSLRSEDTAVYYCELGQGWWGQGTLVTVSS VL: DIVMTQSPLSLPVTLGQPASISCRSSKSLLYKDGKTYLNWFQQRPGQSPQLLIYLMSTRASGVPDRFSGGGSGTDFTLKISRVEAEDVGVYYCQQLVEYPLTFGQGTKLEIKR
Property label: koff
Result: 0.0216 s⁻¹

Binder: H6L13 variant with VH CDR3 GDGY (antibody, human IgG1, kappa, V domains shown, Single point variant of H6FL with L13FL) VH: QVQLVQSGAEVKKPGASVKVSCKASGYTFTSYWMHWVRQAPGQGLEWIGNINPSNGGTNYNEKFKSRATMTRDTSTSTAYMELSSLRSEDTAVYYCELGDGYWGQGTLVTVSS VL: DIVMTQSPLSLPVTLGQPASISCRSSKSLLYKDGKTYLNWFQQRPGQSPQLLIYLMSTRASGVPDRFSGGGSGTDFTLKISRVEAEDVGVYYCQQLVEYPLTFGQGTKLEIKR
Property label: koff
Result: 0.0212 s⁻¹

Binder: H6L13 variant with VH CDR3 GQWY (antibody, human IgG1, kappa, V domains shown, Single point variant of H6FL with L13FL) VH: QVQLVQSGAEVKKPGASVKVSCKASGYTFTSYWMHWVRQAPGQGLEWIGNINPSNGGTNYNEKFKSRATMTRDTSTSTAYMELSSLRSEDTAVYYCELGQWYWGQGTLVTVSS VL: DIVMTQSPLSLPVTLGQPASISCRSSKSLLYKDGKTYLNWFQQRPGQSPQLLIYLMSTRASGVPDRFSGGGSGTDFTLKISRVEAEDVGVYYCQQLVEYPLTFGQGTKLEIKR
Property label: koff
Result: 0.0177 s⁻¹

Binder: H6L13 variant with VH CDR3 GQLY (antibody, human IgG1, kappa, V domains shown, Single point variant of H6FL with L13FL) VH: QVQLVQSGAEVKKPGASVKVSCKASGYTFTSYWMHWVRQAPGQGLEWIGNINPSNGGTNYNEKFKSRATMTRDTSTSTAYMELSSLRSEDTAVYYCELGQLYWGQGTLVTVSS VL: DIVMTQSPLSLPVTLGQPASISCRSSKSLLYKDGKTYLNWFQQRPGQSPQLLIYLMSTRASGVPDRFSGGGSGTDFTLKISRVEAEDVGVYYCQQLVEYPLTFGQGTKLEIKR
Property label: koff
Result: 0.0132 s⁻¹
